Tested on: MYB
protocolText: RT-qPCR splicing assay, MYB AJ/CJ mRNA
Type: cell-based
setupConditions: Homo sapiens, increase in alternative junction mRNA, A673 or K562 cells, 24 hours
quantityMeasured: AC50

**Q:** Annotate the compound CN(c1ccc2c(n1)OCc1cc(-c3cnn(C)c3)ccc1-2)[C@@H]1C[C@H]2CC[C@@H](C1)N2 [Compound 150] with its measured AC50.
**A:** 100 to 1000 nM

**Q:** Annotate the compound c1cc2c(cc1-c1cn[nH]c1)OCCc1nc(N[C@@H]3C[C@H]4CC[C@@H](C3)N4)ccc1-2 [Compound 140] with its measured AC50.
**A:** > 10000 nM

**Q:** Annotate the compound c1cc2c(cc1-c1cn[nH]c1)COc1nc(N[C@@H]3C[C@H]4CC[C@@H](C3)N4)cnc1-2 [Compound 143] with its measured AC50.
**A:** 1000 to 10000 nM

**Q:** Annotate the compound COc1cc(-c2ccc3c(c2)COc2nc(N4CC[C@H](NC(C)(C)C)C4)ccc2-3)cnn1 [Compound 269] with its measured AC50.
**A:** 1000 to 10000 nM

**Q:** Annotate the compound CCC(C)(C)NC1CCN(c2ccc3c(n2)OCc2cc(-c4cnnc(OC)c4)ccc2-3)C1 (stereo not shown) [Compound 281] with its measured AC50.
**A:** 100 to 1000 nM

**Q:** Annotate the compound COc1cc(-c2ccc3c(c2)COc2nc(N4CCN5CCCC5C4)ccc2-3)cnn1 (stereo not shown) [Compound 283] with its measured AC50.
**A:** 1000 to 10000 nM

**Q:** Annotate the compound CN(c1ccc2c(c1)OCc1cc(-c3cn[nH]c3)ccc1-2)[C@@H]1C[C@H]2CC[C@@H](C1)N2 [Compound 104] with its measured AC50.
**A:** > 10000 nM

----------
System: HTT
protocolText: Gene panel canonical junction qPCR assay, HTT CJ mRNA (Table 7)
Format: cell-based, human
setupConditions: Homo sapiens, read-out: HTT CJ mRNA decrease IC50
quantityMeasured: IC50

**Q:** State measured IC50 of the molecule c1cnn(-c2ccc3c(c2)COc2nc(N4CCC5(CC4)CNC5)ccc2-3)c1 [Compound 169] with HTT.
**A:** 100 to 1000 nM

**Q:** State measured IC50 of the molecule CN(c1ccc2c(c1)COc1cc(-n3cccn3)ccc1-2)C1CC(C)(C)NC(C)(C)C1 [Compound 117] with HTT.
**A:** > 10000 nM

**Q:** State measured IC50 of the molecule FC1(F)CC2CC(Oc3ccc4c(n3)OCc3cc(-n5nccn5)ccc3-4)CC1N2 (stereo not drawn) [Compound 235] with HTT.
**A:** > 10000 nM

**Q:** State measured IC50 of the molecule c1cnn(-c2ccc3c(c2)COc2nc(N4CCC5(CCNC5)CC4)ccc2-3)c1 [Compound 184] with HTT.
**A:** 1000 to 10000 nM

**Q:** State measured IC50 of the molecule CN(c1ccc2c(n1)OCc1cc(-n3nccn3)ccc1-2)C1CC2CC(F)(F)C(C1)N2 (stereo not drawn) [Compound 239] with HTT.
**A:** 100 to 1000 nM

**Q:** State measured IC50 of the molecule CN(c1ncc2c(n1)OCc1cc(-c3cnnc(O)c3)ccc1-2)C1CC(C)(C)NC(C)(C)C1 [Compound 277] with HTT.
**A:** 100 to 1000 nM

**Q:** State measured IC50 of the molecule COc1cc(-c2cc(F)c3c(c2)COc2nc(N(C)[C@@H]4C[C@H]5CC[C@@H](C4)N5)ccc2-3)cnn1 [Compound 254] with HTT.
**A:** < 100 nM

**Q:** State measured IC50 of the molecule Fc1ccn(-c2ccc3c(c2)COc2nc(O[C@@H]4C[C@H]5CC[C@@H](C4)N5)ccc2-3)n1 [Compound 230] with HTT.
**A:** 100 to 1000 nM

**Q:** State measured IC50 of the molecule CC1(C)CC(Oc2ccc3c(n2)OCc2cc(-c4cn[nH]c4)ccc2-3)CC(C)(C)N1 [Compound 219] with HTT.
**A:** 100 to 1000 nM

**Q:** State measured IC50 of the molecule CN(c1ccc2c(n1)OCc1cc(-c3cc(=O)n(C)cn3)ccc1-2)[C@@H]1C[C@H]2CC[C@@H](C1)N2 [Compound 162] with HTT.
**A:** < 100 nM

**Q:** State measured IC50 of the molecule c1cc2c(cc1-c1cn[nH]c1)COc1nc(N3CCC4(CCN4)C3)ccc1-2 (stereo not drawn) [Compound 217] with HTT.
**A:** 100 to 1000 nM

**Q:** State measured IC50 of the molecule Cc1cnc(-c2ccc3c(c2)COc2nc(N(C)[C@@H]4C[C@H]5CC[C@@H](C4)N5)ccc2-3)o1 [Compound 206] with HTT.
**A:** 100 to 1000 nM

**Q:** State measured IC50 of the molecule COc1cc(-c2ccc3c(c2)COc2nc(NC4CC5CC(F)(F)C(C4)N5)ccc2-3)cnn1 (stereo not drawn) [Compound 240] with HTT.
**A:** < 100 nM

**Q:** State measured IC50 of the molecule c1cnn(-c2ccc3c(c2)COc2nc(N4CCC(NC5CC5)C4)ccc2-3)n1 (stereo not drawn) [Compound 249] with HTT.
**A:** 1000 to 10000 nM

**Q:** State measured IC50 of the molecule COc1cc(-c2ccc3c(c2)COc2nc(N(C)[C@@H]4C[C@H]5CC[C@@H](C4)N5)ncc2-3)cnn1 [Compound 295] with HTT.
**A:** < 100 nM

**Q:** State measured IC50 of the molecule Cc1cc(-c2ccc3c(c2)COc2nc(O[C@@H]4C[C@H]5C[C@@H](C4)N5)ccc2-3)ccn1 [Compound 209] with HTT.
**A:** 100 to 1000 nM

**Q:** State measured IC50 of the molecule COc1cc(-c2ccc3c(c2)COc2nc(N4CCC(N(C)C5CCC5)C4)ccc2-3)cnn1 (stereo not drawn) [Compound 307] with HTT.
**A:** 100 to 1000 nM

**Q:** State measured IC50 of the molecule COc1cc(-c2ccc3c(c2)COc2nc(OC4CC(C)(C)NC(C)(C)C4)ncc2-3)cnn1 [Compound 299] with HTT.
**A:** 100 to 1000 nM

**Q:** State measured IC50 of the molecule COc1cc(-c2ccc3c(c2)COc2nc(N4CCC(N(C)C(C)C)C4)ccc2-3)cnn1 (stereo not drawn) [Compound 311] with HTT.
**A:** 100 to 1000 nM

**Q:** State measured IC50 of the molecule c1cnn(-c2ccc3c(c2)COc2nc(S[C@@H]4C[C@H]5CC[C@@H](C4)N5)ccc2-3)c1 [Compound 193] with HTT.
**A:** 1000 to 10000 nM

**Q:** State measured IC50 of the molecule COc1cnnc(-c2ccc3c(c2)COc2nc(N4CCC(NC(C)(C)C)C4)ccc2-3)c1 (stereo not drawn) [Compound 292] with HTT.
**A:** > 10000 nM

**Q:** State measured IC50 of the molecule CN(c1ccc2c(n1)COc1cc(-c3cn[nH]c3)ccc1-2)[C@@H]1C[C@H]2CC[C@@H](C1)N2 [Compound 121] with HTT.
**A:** 100 to 1000 nM

**Q:** State measured IC50 of the molecule c1cc2c(cc1N[C@@H]1C[C@H]3CC[C@@H](C1)N3)CCOc1cc(-c3cn[nH]c3)ccc1-2 [Compound 132] with HTT.
**A:** > 10000 nM

**Q:** State measured IC50 of the molecule CC(C)Oc1cc(-c2ccc3c(c2)COc2nc(N4CCC(NC(C)(C)C)C4)ccc2-3)cnn1 (stereo not drawn) [Compound 263] with HTT.
**A:** > 10000 nM

**Q:** State measured IC50 of the molecule COc1cc(-c2ccc3c(c2)COc2nc(N4CCN[C@@H](C(C)(C)C)C4)ccc2-3)cnn1 [Compound 318] with HTT.
**A:** < 100 nM

**Q:** State measured IC50 of the molecule [2H]C([2H])([2H])N(c1ccc2c(n1)OCc1cc(-n3cccn3)ccc1-2)C1C[C@H]2CCC[C@@H](C1)N2 (stereo partly drawn) [Compound 200] with HTT.
**A:** < 100 nM

**Q:** State measured IC50 of the molecule Cc1cn(-c2ccc3c(c2)COc2nc(N(C)[C@@H]4C[C@H]5CC[C@@H](C4)N5)ccc2-3)cn1 [Compound 164] with HTT.
**A:** < 100 nM

**Q:** State measured IC50 of the molecule CN1C[C@@H]2[C@H](C1)[C@H]2N(C)c1ccc2c(n1)OCc1cc(-n3cccn3)ccc1-2 [Compound 196] with HTT.
**A:** > 10000 nM

**Q:** State measured IC50 of the molecule CC1(NC2CCN(c3ccc4c(n3)OCc3cc(-c5cn[nH]c5)ccc3-4)C2)CC1 (stereo not drawn) [Compound 253] with HTT.
**A:** 100 to 1000 nM

**Q:** State measured IC50 of the molecule c1cnn(-c2ccc3c(c2)COc2nc(N4CCC5(CCNCC5)C4)ccc2-3)c1 [Compound 182] with HTT.
**A:** > 10000 nM

FYI, the data here is from patent US20240400584A1.
